Tested on: Escherichia coli TOP10;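 note: peptides expressed intracellularly from a pBAD plasmid library in pooled LB shake-flask culture, induced with 0.3% L-arabinose, DNA abundance read by NGS, three biological replicates, DESeq2 with apeglm shrinkage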
assaySummary: shrunken log2 fold change of peptide-encoding DNA abundance (4.5 h post-induction vs induction); higher = less antimicrobial activity (less host growth inhibition)
measurementConditions: time post-induction: 4.5 h; library: site-saturation at positions 5, 18, 19, 20
Outcome: 1 for shrunken log2 fold change of at least -0.04; 0 for anything lower.

Worked cases, answers included:
{"querySequence": "RRIRHRPPRLPRPRPRPHNGPRP", "label": 0}
{"querySequence": "RRIRLRPPRLPRPRPRPDYVPRP", "label": 0}
{"querySequence": "RRIRERPPRLPRPRPRPSSRPRP", "label": 0}
{"querySequence": "RRIRYRPPRLPRPRPRPSMKPRP", "label": 0}

Is shrunken log2 fold change at least -0.04? Consider `RRIRARPPRLPRPRPRPQQDPRP`
1

Textbook exercise: given the entry `RRIRFRPPRLPRPRPRPWYAPRP` , state whether its shrunken log2 fold change is greater than or equal to -0.04.
0

Is the recorded value of shrunken log2 fold change equal to or greater than -0.04 for this sequence? `RRIRIRPPRLPRPRPRPMWSPRP`
1

Hello, I need to know if `RRIRSRPPRLPRPRPRPLYIPRP` has measured shrunken log2 fold change not below -0.04. Thanks!
0

Decide: shrunken log2 fold change of `RRIRTRPPRLPRPRPRPAKAPRP` >= -0.04?
1
